Test system: ACHN renal
Experiment: NCI tumour cell line growth inhibition, 48 h

{"compound": "CCOP(=O)(CS(C)=O)O[C@@H]1C[C@H](C)CC[C@H]1C(C)C (some centres not stated)", "tested_target": "ACHN renal", "TGI": "15.8 µM"}
{"compound": "CCOc1ccc(C2c3[nH]c4ccccc4c3CCN2C(=O)c2cccs2)cc1 (configuration not stated)", "tested_target": "ACHN renal", "TGI": "> 100 µM"}
{"compound": "Cn1c2ccccc2c2c(=O)n(CCCC(=O)NCC(=O)OC(=NC3CCCCC3)NC3CCCCC3)c3c(-c4ccccc4)nnn3c21", "tested_target": "ACHN renal", "TGI": "> 100 µM"}
{"compound": "COc1ccc2c(OC)c3ccoc3nc2c1O", "tested_target": "ACHN renal", "TGI": "> 100 µM"}
{"compound": "Cc1sc2ncnc(NCCc3ccccc3)c2c1C", "tested_target": "ACHN renal", "TGI": "69.2 µM"}
{"compound": "CC1C2CC(C(C3C(=O)C4CC3C(C)(C)C4C)C2=O)C1(C)C (configuration not stated)", "tested_target": "ACHN renal", "TGI": "> 100 µM"}
{"compound": "CC1(C)CCSC(/C=C/c2ccccc2)=N1", "tested_target": "ACHN renal", "TGI": "38.8 µM"}
{"compound": "COc1n[n+]([O-])c(C)cc1[N+](=O)[O-]", "tested_target": "ACHN renal", "TGI": "18.1 µM"}
{"compound": "COc1ccc(C2(CN(C)C)COc3cc(OC)c(OC)cc3C2=O)cc1OC (configuration not stated)", "tested_target": "ACHN renal", "TGI": "> 100 µM"}
{"compound": "Nc1ncc2c(n1)-c1ccccc1OC2NC1CC1 (configuration not stated)", "tested_target": "ACHN renal", "TGI": "> 100 µM"}
{"compound": "CC(C)=CC(=O)Cc1nc2ccccc2[nH]c1=O", "tested_target": "ACHN renal", "TGI": "> 100 µM"}
{"compound": "CCCCCCN(C(=O)Oc1ccccc1)C(C#N)c1ccccc1 (configuration not stated)", "tested_target": "ACHN renal", "TGI": "> 100 µM"}
